TARGET SYSTEM: human IL-6 (human, UniProt P05231 30-212)
Sequence (P05231 30-212 limits assumed): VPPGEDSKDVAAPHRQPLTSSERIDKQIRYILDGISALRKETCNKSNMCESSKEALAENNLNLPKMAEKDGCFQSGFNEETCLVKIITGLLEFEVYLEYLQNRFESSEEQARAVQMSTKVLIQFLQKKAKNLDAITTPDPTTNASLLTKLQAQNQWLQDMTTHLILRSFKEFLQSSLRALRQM
PROTOCOL SUMMARY: SPR Biacore, supernatant, Protein A capture, 37 C
Known kon of a selection of binders

- BINDER: "Anti-IL-6 antibody, heavy chain S35H, G66D, L100T / light chain WT (antibody, IgG1, V domains shown, IgG1; variable domains only) VH: EVQLVESGGGLVQPGGSLRLSCAASGFTFSPFAMHWVRQAPGKGLEWVAKISPGGSWTYYSDTVTDRFTFSLDTSKSTAYLQMNSLRAEDTAVYYCARQTWGYYALDIWGQGTLVTVSS VL: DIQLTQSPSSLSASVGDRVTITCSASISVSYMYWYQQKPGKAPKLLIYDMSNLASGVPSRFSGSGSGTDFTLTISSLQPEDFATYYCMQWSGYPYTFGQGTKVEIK"
  kon: "3.34e+06 M⁻¹ s⁻¹"
- BINDER: "Anti-IL-6 antibody, heavy chain S35H, G66D, L100R / light chain M32L, M50D, N52S, M88Q (antibody, IgG1, V domains shown, IgG1; variable domains only; VL is variant III) VH: EVQLVESGGGLVQPGGSLRLSCAASGFTFSPFAMHWVRQAPGKGLEWVAKISPGGSWTYYSDTVTDRFTFSLDTSKSTAYLQMNSLRAEDTAVYYCARQRWGYYALDIWGQGTLVTVSS VL: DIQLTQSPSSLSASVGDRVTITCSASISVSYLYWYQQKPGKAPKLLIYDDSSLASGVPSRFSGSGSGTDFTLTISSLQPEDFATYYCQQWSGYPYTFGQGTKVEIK"
  kon: "1.32e+06 M⁻¹ s⁻¹"
- BINDER: "Anti-IL-6 antibody, heavy chain S35H, G66D, Q99E / light chain M32L, M50D, N52S, M88Q (antibody, IgG1, V domains shown, IgG1; variable domains only; VL is variant III) VH: EVQLVESGGGLVQPGGSLRLSCAASGFTFSPFAMHWVRQAPGKGLEWVAKISPGGSWTYYSDTVTDRFTFSLDTSKSTAYLQMNSLRAEDTAVYYCARELWGYYALDIWGQGTLVTVSS VL: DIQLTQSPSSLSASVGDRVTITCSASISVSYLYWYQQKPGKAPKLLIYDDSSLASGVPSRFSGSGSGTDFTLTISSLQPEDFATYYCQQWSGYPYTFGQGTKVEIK"
  kon: "189000 M⁻¹ s⁻¹"
